- measurement.notes: Solubility measurement in dilution solvent (PGMEA)
- Format: physicochemical
- assay.setup: PGMEA added to 0.5 g compound, stirred 100 rpm, one hour, 25° C.

[
  {
    "molecule": "CC(C)CCOc1c(Cl)c(Cl)c2c(c1Cl)/C1=N/c3c4c(Cl)c(OCCC(C)C)c(Cl)c(Cl)c4c4[n]3[Zn][n]3/c(c5ccccc5/c3=N/C2=N1)=N\\C1=NC(=N\\4)/c2c(Cl)c(Cl)c(Cl)c(Cl)c21 [Synthesis Example 15]",
    "Solubility": "○"
  },
  {
    "molecule": "CC(C)(C)c1ccccc1Oc1c(Cl)c(Cl)c2c(c1Cl)/C1=N/c3c4c(Cl)c(Cl)c(Cl)c(Cl)c4c4[n]3[Zn][n]3/c(c5ccccc5/c3=N/C2=N1)=N\\C1=NC(=N\\4)/c2c(Cl)c(Cl)c(Cl)c(Cl)c21 [Synthesis Example 4]",
    "Solubility": "○"
  },
  {
    "molecule": "CC(C)(C)COc1c(Cl)c(Cl)c2c(c1Cl)/C1=N/c3c4c(Cl)c(OCC(C)(C)C)c(Cl)c(Cl)c4c4[n]3[Zn][n]3/c(c5ccccc5/c3=N/C2=N1)=N\\C1=NC(=N\\4)/c2ccccc21 [Synthesis Example 14]",
    "Solubility": "○"
  }
]
